Hello, the source for this data is the supplement of paper PMC9233669, in case you need it.

test system: biotinyl-Ile-oxazolone; experiment: self-aminoacylation, catalytic enhancement (BIO) (fold over background); higher = more active; k-Seq, kA / k0A0; sequences stand for … in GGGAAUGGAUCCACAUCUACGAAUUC…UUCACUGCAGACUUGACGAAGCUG
Variants at the floor of the assay were thinned out.
Kindly supply the reported self-aminoacylation values for the records listed here.
One number for each entry.

The examples below pair each entry with its known result.
AAGUUUGCUACUAGUCUCAAG [Fam3.1 aminoacylation ribozyme variant]	0.827
CUACUUCAAACAAUCUAUCUG [Fam1A.1 aminoacylation ribozyme variant]	0.507
AAUUUUGAUAAUAGUCGCAAG [Fam3.1 aminoacylation ribozyme variant]	1.7

Hey, can you go through the list below and give me self-aminoacylation for every item?
1. AUUUCCCUGAUCAUCGAGUGA [Fam2.1 aminoacylation ribozyme variant]
2. AUUGACCUAGGUCAUCGGGUU [Fam2.2 aminoacylation ribozyme variant]

3
7.25
